Value source: PubChem BioAssay AID1159580

- Method: chemical genetic growth profiling, strain panel (AID 1159580);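 also: tested at 20 µM; growth read once vehicle control cultures reached saturation at 30 °C; lower values mean less growth of the strain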
- Condition context: S. cerevisiae deletion strains, growth OD, locus YLR258W, strain gsy2
In all, about 5,500 compounds went through this assay and about 2,000 (36%) were called active. Roughly 18% stayed inconclusive and do not appear here. Rule as the data show it: active = normalized growth mostly below about 0.91 (no sharp cut-off); inconclusive = no clear call, values can overlap the other calls; inactive = mostly above about 0.92. The list shows a part of the results.
# output must be one of true = active, false = inactive

Oc1ccc([C@H]2Oc3cc(O)cc(O)c3C[C@H]2O)cc1 | false
COc1cc(O)c2c(=O)cc(-c3ccc(OC)c(-c4c(O)cc(O)c5c(=O)cc(-c6ccc(O)cc6)oc45)c3)oc2c1 | false
CC[C@@]1(O)C(=O)OCc2c1cc1n(c2=O)Cc2cc3ccccc3nc2-1 | true
O=c1c(O)cc([C@H]2Oc3cc(O)cc(O)c3C[C@H]2O)cc2c([C@H]3Oc4cc(O)cc(O)c4C[C@H]3O)cc(O)c(O)c12 | false
CC[C@@]1(O)C(=O)OCc2c1cc1n(c2=O)Cc2cc3cc(O)ccc3nc2-1 | false

Consider the record given below.
[in] Returns: the outcome recorded for NC(=O)c1ccccc1O in this assay.
[out] false
